Where these numbers come from: ChEMBL document CHEMBL5705893

# Assay notes: Antiproliferative activity against human CL-11 cells assessed as inhibition of cell growth incubated for 72 hrs by celltiter-glo assay
# Type: functional, cell-based
# Measurement conditions: CL-11, 72 h
Observable: IC50 (µM)
Give just the number in µM; leave the unit off.

Task: Would you mind telling me what IC50 value was observed for CCc1cccc(CC)c1NC(=O)c1nn(C)c2c1CCc1cnc(Nc3ccc(C(=O)NC4CCN(C)CC4)cc3OC(F)(F)F)nc1-2 ?
Output: 1.32

###

# Tested on: SW480
# Assay notes: Antiproliferative activity against human SW480 cells assessed as inhibition of cell growth incubated for 72 hrs by celltiter-glo assay
# Format: functional, cell-based
# Measurement conditions: SW480, 72 h
Observable: pIC50
# pIC50 = -log10(concentration in molar units)

Task: Would you mind telling me what pIC50 value was observed for CCc1cccc(CC)c1NC(=O)c1nn(C)c2c1CCc1cnc(Nc3ccc(C(=O)NC4CCN(C)CC4)cc3OC(F)(F)F)nc1-2 ?
Output: 5.89

###

# Assay notes: Cmax in Athymic nu-nu mouse at 100 mg/kg, po measured upto 24 hrs by LC-MS/MS analysis
# Type: ADME, organism-based
# Measurement conditions: in vivo
Observable: Cmax (nM)
Give just the number in nM; leave the unit off.

Task: Would you mind telling me what Cmax value was observed for CCc1cccc(CC)c1NC(=O)c1nn(C)c2c1CCc1cnc(Nc3ccc(C(=O)NC4CCN(C)CC4)cc3OC(F)(F)F)nc1-2 ?
Output: 1790

###

# Test system: K562
# Assay notes: Antiproliferative activity against human K562 cells assessed as inhibition of cell growth incubated for 72 hrs by celltiter-glo assay
# Type: functional, cell-based
# Measurement conditions: K562, 72 h
Observable: pIC50
# pIC50 = -log10(concentration in molar units)

Task: Would you mind telling me what pIC50 value was observed for CCc1cccc(CC)c1NC(=O)c1nn(C)c2c1CCc1cnc(Nc3ccc(C(=O)NC4CCN(C)CC4)cc3OC(F)(F)F)nc1-2 ?
Output: 5.57

###

# Test system: ACHN
# Assay notes: Antiproliferative activity against human ACHN cells assessed as inhibition of cell growth incubated for 72 hrs by celltiter-glo assay
# Type: functional, cell-based
Observable: IC50 (nM)
Give just the number in nM; leave the unit off.

Task: Would you mind telling me what IC50 value was observed for CCc1cccc(CC)c1NC(=O)c1nn(C)c2c1CCc1cnc(Nc3ccc(C(=O)NC4CCN(C)CC4)cc3OC(F)(F)F)nc1-2 ?
Output: 15

###

# Test system: Jurkat
# Assay notes: Antiproliferative activity against human Jurkat cells assessed as inhibition of cell growth incubated for 72 hrs by celltiter-glo assay
# Type: functional, cell-based
Observable: pIC50
# pIC50 = -log10(concentration in molar units)

Task: Would you mind telling me what pIC50 value was observed for CCc1cccc(CC)c1NC(=O)c1nn(C)c2c1CCc1cnc(Nc3ccc(C(=O)NC4CCN(C)CC4)cc3OC(F)(F)F)nc1-2 ?
Output: 5.44

###

# Experimental target: Mitogen-activated protein kinase 1 (Homo sapiens, UniProt P28482)
# Sequence (P28482 whole entry): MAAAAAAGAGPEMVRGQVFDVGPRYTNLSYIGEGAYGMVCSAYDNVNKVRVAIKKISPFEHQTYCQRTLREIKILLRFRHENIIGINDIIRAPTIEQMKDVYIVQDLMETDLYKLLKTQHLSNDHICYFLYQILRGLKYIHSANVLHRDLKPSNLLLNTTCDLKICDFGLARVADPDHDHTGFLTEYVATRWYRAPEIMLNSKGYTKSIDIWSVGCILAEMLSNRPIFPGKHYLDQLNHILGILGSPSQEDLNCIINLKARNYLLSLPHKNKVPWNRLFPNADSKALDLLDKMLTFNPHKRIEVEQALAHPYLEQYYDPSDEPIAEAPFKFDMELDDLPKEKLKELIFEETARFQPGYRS
# Assay notes: Inhibition of recombinant ERK2 (unknown origin)
Observable: IC50

| Smiles entry | IC50 |
| --- | --- |
| CCc1cccc(CC)c1NC(=O)c1nn(C)c2c1CCc1cnc(Nc3ccc(C(=O)NC4CCN(C)CC4)cc3OC(F)(F)F)nc1-2 | > 10 µM |

Let us examine a further case.
Task: Would you mind telling me what IC50 value was observed for O=C1c2ccccc2-c2n[nH]c3cccc1c23 ?
Output: > 10 µM

###

# Experimental target: Protein kinase C beta type (Homo sapiens, UniProt P05771)
# Sequence (P05771 whole entry): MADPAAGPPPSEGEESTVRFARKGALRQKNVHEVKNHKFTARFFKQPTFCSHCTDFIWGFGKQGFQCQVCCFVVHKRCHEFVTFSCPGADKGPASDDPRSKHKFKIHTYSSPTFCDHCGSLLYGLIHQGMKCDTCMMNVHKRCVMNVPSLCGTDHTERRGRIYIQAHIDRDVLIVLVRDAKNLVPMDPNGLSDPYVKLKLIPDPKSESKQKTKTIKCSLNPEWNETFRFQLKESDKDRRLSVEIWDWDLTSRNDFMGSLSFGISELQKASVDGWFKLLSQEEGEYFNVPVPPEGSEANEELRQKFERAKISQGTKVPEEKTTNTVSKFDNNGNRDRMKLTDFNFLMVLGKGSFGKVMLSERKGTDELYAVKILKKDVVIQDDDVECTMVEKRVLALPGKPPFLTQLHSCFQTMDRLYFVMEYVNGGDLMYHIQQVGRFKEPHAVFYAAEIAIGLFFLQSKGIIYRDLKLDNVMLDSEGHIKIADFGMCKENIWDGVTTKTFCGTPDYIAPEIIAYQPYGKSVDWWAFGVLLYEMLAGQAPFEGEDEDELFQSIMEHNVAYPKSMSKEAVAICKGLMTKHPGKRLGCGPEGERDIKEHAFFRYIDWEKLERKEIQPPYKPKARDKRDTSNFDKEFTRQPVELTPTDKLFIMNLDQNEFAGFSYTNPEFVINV
# Assay notes: Inhibition of recombinant PKCbeta (unknown origin)
Observable: IC50

| Smiles entry | Observed measurement |
| --- | --- |
| O=C1c2ccccc2-c2n[nH]c3cccc1c23 | > 10 µM |

Let us examine a further case.
Task: Would you mind telling me what IC50 value was observed for CCc1cccc(CC)c1NC(=O)c1nn(C)c2c1CCc1cnc(Nc3ccc(C(=O)NC4CCN(C)CC4)cc3OC(F)(F)F)nc1-2 ?
Output: > 10 µM

###

# System: NCI-H2126
# Assay notes: Antiproliferative activity against human NCI-H2126 cells assessed as inhibition of cell growth incubated for 72 hrs by celltiter-glo assay
# Format: functional, cell-based
# Measurement conditions: NCI-H2126, 72 h
Observable: IC50
# do not omit the unit; it follows the number

Task: Would you mind telling me what IC50 value was observed for CCc1cccc(CC)c1NC(=O)c1nn(C)c2c1CCc1cnc(Nc3ccc(C(=O)NC4CCN(C)CC4)cc3OC(F)(F)F)nc1-2 ?
Output: 4.63 µM

###

# Experimental target: Eukaryotic translation initiation factor 2-alpha kinase 3 (Homo sapiens, UniProt Q9NZJ5)
# Sequence (Q9NZJ5 whole entry): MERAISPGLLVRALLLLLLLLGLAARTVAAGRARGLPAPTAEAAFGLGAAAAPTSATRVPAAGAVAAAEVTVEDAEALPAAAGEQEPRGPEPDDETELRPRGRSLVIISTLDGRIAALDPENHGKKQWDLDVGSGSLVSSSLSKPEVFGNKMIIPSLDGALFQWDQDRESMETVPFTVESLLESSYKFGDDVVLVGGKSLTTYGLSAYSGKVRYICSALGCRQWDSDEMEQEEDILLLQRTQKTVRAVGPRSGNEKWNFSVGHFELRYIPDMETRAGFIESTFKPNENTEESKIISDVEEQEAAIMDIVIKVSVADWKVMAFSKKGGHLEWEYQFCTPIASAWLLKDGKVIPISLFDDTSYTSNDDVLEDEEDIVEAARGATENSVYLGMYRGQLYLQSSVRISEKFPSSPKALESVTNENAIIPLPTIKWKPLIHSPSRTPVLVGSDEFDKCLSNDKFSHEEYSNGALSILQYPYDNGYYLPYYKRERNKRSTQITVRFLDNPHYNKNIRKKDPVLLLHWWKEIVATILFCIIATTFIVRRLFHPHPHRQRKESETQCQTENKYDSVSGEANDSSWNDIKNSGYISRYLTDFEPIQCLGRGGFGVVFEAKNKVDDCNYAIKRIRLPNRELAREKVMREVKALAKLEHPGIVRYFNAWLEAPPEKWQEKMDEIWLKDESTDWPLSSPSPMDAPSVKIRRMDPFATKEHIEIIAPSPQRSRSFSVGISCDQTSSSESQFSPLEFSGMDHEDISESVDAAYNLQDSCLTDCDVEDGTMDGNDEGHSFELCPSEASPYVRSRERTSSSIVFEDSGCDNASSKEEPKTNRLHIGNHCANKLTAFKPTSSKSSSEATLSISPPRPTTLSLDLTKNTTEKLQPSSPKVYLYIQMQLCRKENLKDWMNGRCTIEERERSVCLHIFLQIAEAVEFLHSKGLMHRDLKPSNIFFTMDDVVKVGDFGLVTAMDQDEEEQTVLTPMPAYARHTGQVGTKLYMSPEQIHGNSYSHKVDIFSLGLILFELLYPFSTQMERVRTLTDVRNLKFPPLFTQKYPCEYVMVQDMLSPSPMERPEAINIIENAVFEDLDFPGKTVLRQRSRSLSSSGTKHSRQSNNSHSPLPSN
# Assay notes: Inhibition of recombinant PERK (unknown origin)
Observable: IC50

| Smiles entry | Observed measurement |
| --- | --- |
| CCc1cccc(CC)c1NC(=O)c1nn(C)c2c1CCc1cnc(Nc3ccc(C(=O)NC4CCN(C)CC4)cc3OC(F)(F)F)nc1-2 | > 10 µM |

Let us examine a further case.
Task: Would you mind telling me what IC50 value was observed for O=C1c2ccccc2-c2n[nH]c3cccc1c23 ?
Output: > 10 µM

###

# Experimental target: Serine/threonine-protein kinase pim-2 (Homo sapiens, UniProt Q9P1W9)
# Sequence (Q9P1W9 whole entry): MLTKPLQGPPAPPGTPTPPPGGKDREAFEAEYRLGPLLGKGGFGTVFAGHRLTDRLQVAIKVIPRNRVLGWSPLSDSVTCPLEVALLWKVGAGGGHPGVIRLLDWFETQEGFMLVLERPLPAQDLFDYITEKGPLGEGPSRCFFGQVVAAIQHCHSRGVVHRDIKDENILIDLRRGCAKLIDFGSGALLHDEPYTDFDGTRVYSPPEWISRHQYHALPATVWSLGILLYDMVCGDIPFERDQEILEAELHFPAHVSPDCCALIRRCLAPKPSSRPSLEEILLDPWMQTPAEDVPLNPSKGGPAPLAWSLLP
# Assay notes: Inhibition of recombinant PIM2 (unknown origin)
Observable: IC50 (nM)
Give just the number in nM; leave the unit off.

Task: Would you mind telling me what IC50 value was observed for O=C1c2ccccc2-c2n[nH]c3cccc1c23 ?
Output: 1050

###

# Experimental target: Vascular endothelial growth factor receptor 2 (Homo sapiens, UniProt P35968)
# Assay notes: Inhibition of recombinant VEGFR2 (unknown origin)
Observable: pIC50
# pIC50 = -log10(concentration in molar units)

Task: Query the reported pIC50 for Vascular endothelial growth factor receptor 2 (Homo sapiens, UniProt P35968); item: O=C1c2ccccc2-c2n[nH]c3cccc1c23
Output: 5.53

###

Here, each record is paired with measured IC50 data.
# Experimental target: Serine/threonine-protein kinase PLK1 (Homo sapiens, UniProt P53350)
# Sequence (P53350 whole entry): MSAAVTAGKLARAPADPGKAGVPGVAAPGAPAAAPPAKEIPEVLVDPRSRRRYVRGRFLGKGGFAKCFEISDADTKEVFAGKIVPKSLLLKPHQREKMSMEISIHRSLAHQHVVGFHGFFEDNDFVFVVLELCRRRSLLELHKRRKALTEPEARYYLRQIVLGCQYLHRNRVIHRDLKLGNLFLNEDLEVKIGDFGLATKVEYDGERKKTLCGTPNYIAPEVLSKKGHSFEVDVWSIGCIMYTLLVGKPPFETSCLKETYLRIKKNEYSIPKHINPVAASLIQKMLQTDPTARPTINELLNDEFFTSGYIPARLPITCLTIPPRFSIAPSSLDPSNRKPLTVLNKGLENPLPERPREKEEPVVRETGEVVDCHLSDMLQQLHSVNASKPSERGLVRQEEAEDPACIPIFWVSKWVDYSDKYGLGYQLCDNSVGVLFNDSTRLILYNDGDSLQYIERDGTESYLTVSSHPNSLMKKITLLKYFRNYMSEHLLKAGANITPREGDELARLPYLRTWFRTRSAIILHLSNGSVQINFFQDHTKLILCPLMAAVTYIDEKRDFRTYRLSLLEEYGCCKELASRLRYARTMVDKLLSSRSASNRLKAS
# Assay notes: Inhibition of recombinant PLK1 (unknown origin)

| Smiles entry | Observed measurement |
| --- | --- |
| O=C1c2ccccc2-c2n[nH]c3cccc1c23 | > 10 µM |

Let us examine a further case.
Task: Would you mind telling me what IC50 value was observed for CCc1cccc(CC)c1NC(=O)c1nn(C)c2c1CCc1cnc(Nc3ccc(C(=O)NC4CCN(C)CC4)cc3OC(F)(F)F)nc1-2 ?
Output: > 10 µM

###

# System: TK-10
# Assay notes: Antiproliferative activity against human TK-10 cells assessed as inhibition of cell growth incubated for 72 hrs by celltiter-glo assay
# Assay type: functional, cell-based
# Measurement conditions: TK-10, 72 h
Observable: pIC50
# pIC50 = -log10(concentration in molar units)

Task: Would you mind telling me what pIC50 value was observed for CCc1cccc(CC)c1NC(=O)c1nn(C)c2c1CCc1cnc(Nc3ccc(C(=O)NC4CCN(C)CC4)cc3OC(F)(F)F)nc1-2 ?
Output: 5.81

###

# Experimental target: Inhibitor of nuclear factor kappa-B kinase subunit beta (Homo sapiens, UniProt O14920)
# Assay notes: Inhibition of recombinant IKK2 (unknown origin)
Observable: pIC50
# pIC50 = -log10(concentration in molar units)

Task: Would you mind telling me what pIC50 value was observed for O=C1c2ccccc2-c2n[nH]c3cccc1c23 ?
Output: 5.99

###

# Experimental target: Serine/threonine-protein kinase Nek6 (Homo sapiens)
# Sequence (Q9HC98 whole entry): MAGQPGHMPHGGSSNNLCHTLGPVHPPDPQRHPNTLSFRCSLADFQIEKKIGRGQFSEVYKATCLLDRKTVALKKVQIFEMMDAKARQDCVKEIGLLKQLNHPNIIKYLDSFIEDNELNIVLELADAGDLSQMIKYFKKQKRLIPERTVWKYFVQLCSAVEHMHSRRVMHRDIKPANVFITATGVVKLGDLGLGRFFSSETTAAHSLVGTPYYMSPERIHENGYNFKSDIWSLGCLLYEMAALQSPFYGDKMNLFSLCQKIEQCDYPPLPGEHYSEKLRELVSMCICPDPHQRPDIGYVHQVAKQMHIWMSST
# Assay notes: Inhibition of recombinant NEK6 (unknown origin) preincubated for 60 mins
pIC50: −log10 of the molar value.
Observable: pIC50

Task: Would you mind telling me what pIC50 value was observed for CCc1cccc(CC)c1NC(=O)c1nn(C)c2c1CCc1cnc(Nc3ccc(C(=O)NC4CCN(C)CC4)cc3OC(F)(F)F)nc1-2 ?
Output: > 5.00

###

# Assay notes: Oral bioavailability in Athymic nu-nu mouse at 100 mg/kg measured upto 24 hrs by LC-MS/MS analysis
# Type: ADME, organism-based
# Measurement conditions: in vivo
Observable: bioavailability (%)
Give just the number in %; leave the unit off.

Task: Would you mind telling me what bioavailability value was observed for CCc1cccc(CC)c1NC(=O)c1nn(C)c2c1CCc1cnc(Nc3ccc(C(=O)NC4CCN(C)CC4)cc3OC(F)(F)F)nc1-2 ?
Output: 22.6

###

# Experimental target: Maternal embryonic leucine zipper kinase (Homo sapiens, UniProt Q14680)
# Sequence (Q14680 whole entry): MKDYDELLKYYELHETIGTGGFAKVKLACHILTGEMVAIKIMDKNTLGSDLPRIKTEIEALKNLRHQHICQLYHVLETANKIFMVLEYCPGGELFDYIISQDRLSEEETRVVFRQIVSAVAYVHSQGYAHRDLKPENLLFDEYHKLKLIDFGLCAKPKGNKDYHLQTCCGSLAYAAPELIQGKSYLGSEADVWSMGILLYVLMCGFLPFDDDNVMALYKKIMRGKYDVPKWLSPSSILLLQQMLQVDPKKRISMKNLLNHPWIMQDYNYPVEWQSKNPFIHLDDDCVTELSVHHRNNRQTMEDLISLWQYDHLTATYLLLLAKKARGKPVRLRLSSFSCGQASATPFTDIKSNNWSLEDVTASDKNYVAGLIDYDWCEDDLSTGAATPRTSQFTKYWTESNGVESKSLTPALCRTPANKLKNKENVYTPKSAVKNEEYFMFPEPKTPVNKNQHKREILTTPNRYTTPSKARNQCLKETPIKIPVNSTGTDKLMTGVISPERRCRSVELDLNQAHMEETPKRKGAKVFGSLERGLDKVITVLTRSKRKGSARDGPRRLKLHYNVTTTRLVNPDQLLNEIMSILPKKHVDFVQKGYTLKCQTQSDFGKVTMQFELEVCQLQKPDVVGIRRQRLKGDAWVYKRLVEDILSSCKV
# Assay notes: Inhibition of recombinant MELK (unknown origin)
Observable: IC50 (µM)
Give just the number in µM; leave the unit off.

Task: Would you mind telling me what IC50 value was observed for O=C1c2ccccc2-c2n[nH]c3cccc1c23 ?
Output: 0.11

Task: Also need CCc1cccc(CC)c1NC(=O)c1nn(C)c2c1CCc1cnc(Nc3ccc(C(=O)NC4CCN(C)CC4)cc3OC(F)(F)F)nc1-2 , thanks.
Output: 6.01

###

Here, each record is paired with measured IC50 data.
# Experimental target: Glycogen synthase kinase-3 beta (Homo sapiens, UniProt P49841)
# Sequence (P49841 whole entry): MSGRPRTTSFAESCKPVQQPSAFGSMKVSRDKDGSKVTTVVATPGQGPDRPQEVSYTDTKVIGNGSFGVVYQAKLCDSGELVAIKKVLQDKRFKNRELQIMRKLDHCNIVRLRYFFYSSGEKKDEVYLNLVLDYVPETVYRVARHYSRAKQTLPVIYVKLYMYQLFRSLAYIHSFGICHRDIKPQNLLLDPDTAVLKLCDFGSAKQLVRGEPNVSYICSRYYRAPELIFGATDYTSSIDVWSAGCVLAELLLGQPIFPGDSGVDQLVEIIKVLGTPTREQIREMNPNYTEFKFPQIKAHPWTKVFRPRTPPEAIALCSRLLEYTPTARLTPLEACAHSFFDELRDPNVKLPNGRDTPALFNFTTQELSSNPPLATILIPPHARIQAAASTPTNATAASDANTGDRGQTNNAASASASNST
# Assay notes: Inhibition of recombinant GSK3beta (unknown origin)

| Smiles entry | IC50 |
| --- | --- |
| CCc1cccc(CC)c1NC(=O)c1nn(C)c2c1CCc1cnc(Nc3ccc(C(=O)NC4CCN(C)CC4)cc3OC(F)(F)F)nc1-2 | > 10 µM |

Let us examine a further case.
Task: Query the reported IC50 for Glycogen synthase kinase-3 beta (Homo sapiens, UniProt P49841); item: O=C1c2ccccc2-c2n[nH]c3cccc1c23
Output: > 10 µM
